Would you kindly list Intrinsic Gibbs energy change (ΔGint), CAXIII for each of these compounds?
molecular target: CAXIII (Homo sapiens); conditions: 37 °C; calculated (Equation 5);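 note: recombinant human CAXIII melting temperature tracked by ANS fluorescence in thermal shift assay, Tm fitted against ligand concentration, intrinsic value corrects Kd for deprotonated sulfonamide and Zn-bound water fractions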
Sequence (Q8N1Q1 whole entry): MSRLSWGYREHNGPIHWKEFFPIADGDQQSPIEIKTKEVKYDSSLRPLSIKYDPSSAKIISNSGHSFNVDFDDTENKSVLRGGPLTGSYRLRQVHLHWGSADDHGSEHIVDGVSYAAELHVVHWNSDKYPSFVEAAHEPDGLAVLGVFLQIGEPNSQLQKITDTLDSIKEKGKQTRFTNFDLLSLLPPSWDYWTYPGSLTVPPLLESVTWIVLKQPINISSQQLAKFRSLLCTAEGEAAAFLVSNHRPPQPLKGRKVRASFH
Answers are plain numbers, in kcal/mol.

Recorded results for 6 compounds are shown here.
>>> value_observed("COC(=O)CCN(c1ccc(S(N)(=O)=O)cc1)c1nc(C)cs1")
-13.8
>>> value_observed("Cc1csc(N(CCC(=O)NN)c2ccc(S(N)(=O)=O)cc2)n1")
-12.9
>>> value_observed("CCOC(=O)c1sc(N(CCC(=O)OC)c2ccc(S(N)(=O)=O)cc2)nc1C")
-13.1
>>> value_observed("NS(=O)(=O)c1ccc(N(CCC(=O)O)c2nc(-c3ccc(Cl)cc3)c(Cl)s2)cc1")
-15.1
>>> value_observed("CCOC(=O)c1sc(N(CCC(=O)NN)c2ccc(S(N)(=O)=O)cc2)nc1C")
-13.1
>>> value_observed("Cc1csc(N(CCC(=O)O)c2ccc(S(N)(=O)=O)cc2)n1")
-13.5

From here, focus on the item given below.
Write down Intrinsic Gibbs energy change (ΔGint), CAXIII measured for item CCOC(=O)c1sc(N(CCC(=O)O)c2ccc(S(N)(=O)=O)cc2)nc1C
-13.4

----------
target: CAVI (Homo sapiens); construct: made in house; assay: Fluorescent thermal shift assay (FTSA), CAVI; assay type: binding; details: 37 °C; calculated (Equation 5)
Sequence (P23280 21-290 limits assumed): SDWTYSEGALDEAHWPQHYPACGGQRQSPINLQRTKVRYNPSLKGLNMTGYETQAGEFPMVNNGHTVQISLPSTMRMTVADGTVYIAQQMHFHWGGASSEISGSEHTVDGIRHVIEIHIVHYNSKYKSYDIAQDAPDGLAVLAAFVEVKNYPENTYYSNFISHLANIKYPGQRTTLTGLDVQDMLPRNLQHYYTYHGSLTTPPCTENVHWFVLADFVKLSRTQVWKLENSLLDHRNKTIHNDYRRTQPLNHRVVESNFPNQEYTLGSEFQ
Endpoint: Intrinsic Gibbs energy change (ΔGint), CAVI (kcal/mol)
Answers are plain numbers, in kcal/mol.

Recorded results for 4 molecules are shown here.
>>> value_observed("CCOC(=O)c1sc(N(CCC(=O)O)c2ccc(S(N)(=O)=O)cc2)nc1C [Compound 31]")
-12.4
>>> value_observed("Cc1csc(N(CCC(=O)NN)c2ccc(S(N)(=O)=O)cc2)n1 [Compound 29]")
-12.8
>>> value_observed("CCOC(=O)c1sc(N(CCC(=O)NN)c2ccc(S(N)(=O)=O)cc2)nc1C [Compound 33]")
-12.4
>>> value_observed("Cc1csc(N(CCC(=O)O)c2ccc(S(N)(=O)=O)cc2)n1 [Compound 27]")
-13

List the reported Intrinsic Gibbs energy change (ΔGint), CAVI of each molecule below.
1. COC(=O)CCN(c1ccc(S(N)(=O)=O)cc1)c1nc(C)cs1 [Compound 28]
2. NS(=O)(=O)c1ccc(N(CCC(=O)O)c2nc(-c3ccc(Cl)cc3)c(Cl)s2)cc1 [Compound 36]
3. CCOC(=O)c1sc(N(CCC(=O)OC)c2ccc(S(N)(=O)=O)cc2)nc1C [Compound 32]

1. -13.2
2. -13.4
3. -12.4

----------
biological target: CAXIV (Homo sapiens, UniProt Q9ULX7); construct: made in house; host or cells: E. coli; assay: Fluorescent thermal shift assay (FTSA), CAXIV; format: binding; conditions: FTSA, pH 7.0, 37 °C; read-out: Observed Dissociation Constant (Kd_obs), CAXIV;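 note: recombinant human CA XIV from E. coli, ANS-based thermal shift: Kd_obs fitted from melting temperature versus ligand concentration, ΔGint from Kd_obs corrected for deprotonated sulfonamide and Zn-water fractions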
Sequence (Q9ULX7 16-337): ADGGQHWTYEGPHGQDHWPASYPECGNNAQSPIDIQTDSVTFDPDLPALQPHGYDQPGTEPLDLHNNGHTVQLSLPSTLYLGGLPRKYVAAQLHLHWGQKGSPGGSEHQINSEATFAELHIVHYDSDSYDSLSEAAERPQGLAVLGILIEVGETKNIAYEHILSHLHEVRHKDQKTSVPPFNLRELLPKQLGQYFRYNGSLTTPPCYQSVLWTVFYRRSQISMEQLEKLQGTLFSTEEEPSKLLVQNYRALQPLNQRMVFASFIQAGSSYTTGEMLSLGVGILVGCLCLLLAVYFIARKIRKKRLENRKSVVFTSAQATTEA
Endpoint: Kd
Answer by giving the amount and then stating its unit.

Recorded results for 6 molecules are shown here.
>>> value_observed("Cc1ccc(C)n1NC(=O)CC(CNc1ccc(S(N)(=O)=O)cc1Cl)C(=O)Nn1c(C)ccc1C (centres unmarked) [Compound 19b]")
"25 nM"
>>> value_observed("NS(=O)(=O)c1ccc(NCC(CC(=O)NN=Cc2ccccc2)C(=O)NN=Cc2ccccc2)c(Cl)c1 (centres unmarked)")
"140 nM"
>>> value_observed("COC(=O)CCN(c1ccc(S(N)(=O)=O)cc1)c1nc(C)cs1")
"29 nM"
>>> value_observed("NS(=O)(=O)c1ccc(NCC(CC(=O)NN=Cc2ccc(C(=O)O)cc2)C(=O)NN=Cc2ccc(C(=O)O)cc2)cc1 (centres unmarked) [Compound 18a]")
"5000 nM"
>>> value_observed("NS(=O)(=O)c1ccc(NCC(CC(=O)NN=Cc2ccc(O)cc2)C(=O)NN=Cc2ccc(O)cc2)c(Cl)c1 (centres unmarked)")
"130 nM"
>>> value_observed("CCOC(=O)c1sc(N(CCC(=O)NN)c2ccc(S(N)(=O)=O)cc2)nc1C")
"910 nM"

List the reported Kd of each molecule below.
1. CNC(=S)NNC(=O)CC(CNc1ccc(S(N)(=O)=O)cc1Cl)C(=O)NNC(=S)NC (centres unmarked) [Compound 22b]
2. NS(=O)(=O)c1ccc(NCC(CC(=O)NNC(=S)Nc2ccccc2)C(=O)NNC(=S)Nc2ccccc2)c(Cl)c1 (centres unmarked) [Compound 23b]

1: 130 nM; 2: 50 nM
